inhibition at 0.1 µM reference
Target: hNav1.7 (Homo sapiens)
Construct: host or cells: CHO
Sequence (Q15858 whole entry): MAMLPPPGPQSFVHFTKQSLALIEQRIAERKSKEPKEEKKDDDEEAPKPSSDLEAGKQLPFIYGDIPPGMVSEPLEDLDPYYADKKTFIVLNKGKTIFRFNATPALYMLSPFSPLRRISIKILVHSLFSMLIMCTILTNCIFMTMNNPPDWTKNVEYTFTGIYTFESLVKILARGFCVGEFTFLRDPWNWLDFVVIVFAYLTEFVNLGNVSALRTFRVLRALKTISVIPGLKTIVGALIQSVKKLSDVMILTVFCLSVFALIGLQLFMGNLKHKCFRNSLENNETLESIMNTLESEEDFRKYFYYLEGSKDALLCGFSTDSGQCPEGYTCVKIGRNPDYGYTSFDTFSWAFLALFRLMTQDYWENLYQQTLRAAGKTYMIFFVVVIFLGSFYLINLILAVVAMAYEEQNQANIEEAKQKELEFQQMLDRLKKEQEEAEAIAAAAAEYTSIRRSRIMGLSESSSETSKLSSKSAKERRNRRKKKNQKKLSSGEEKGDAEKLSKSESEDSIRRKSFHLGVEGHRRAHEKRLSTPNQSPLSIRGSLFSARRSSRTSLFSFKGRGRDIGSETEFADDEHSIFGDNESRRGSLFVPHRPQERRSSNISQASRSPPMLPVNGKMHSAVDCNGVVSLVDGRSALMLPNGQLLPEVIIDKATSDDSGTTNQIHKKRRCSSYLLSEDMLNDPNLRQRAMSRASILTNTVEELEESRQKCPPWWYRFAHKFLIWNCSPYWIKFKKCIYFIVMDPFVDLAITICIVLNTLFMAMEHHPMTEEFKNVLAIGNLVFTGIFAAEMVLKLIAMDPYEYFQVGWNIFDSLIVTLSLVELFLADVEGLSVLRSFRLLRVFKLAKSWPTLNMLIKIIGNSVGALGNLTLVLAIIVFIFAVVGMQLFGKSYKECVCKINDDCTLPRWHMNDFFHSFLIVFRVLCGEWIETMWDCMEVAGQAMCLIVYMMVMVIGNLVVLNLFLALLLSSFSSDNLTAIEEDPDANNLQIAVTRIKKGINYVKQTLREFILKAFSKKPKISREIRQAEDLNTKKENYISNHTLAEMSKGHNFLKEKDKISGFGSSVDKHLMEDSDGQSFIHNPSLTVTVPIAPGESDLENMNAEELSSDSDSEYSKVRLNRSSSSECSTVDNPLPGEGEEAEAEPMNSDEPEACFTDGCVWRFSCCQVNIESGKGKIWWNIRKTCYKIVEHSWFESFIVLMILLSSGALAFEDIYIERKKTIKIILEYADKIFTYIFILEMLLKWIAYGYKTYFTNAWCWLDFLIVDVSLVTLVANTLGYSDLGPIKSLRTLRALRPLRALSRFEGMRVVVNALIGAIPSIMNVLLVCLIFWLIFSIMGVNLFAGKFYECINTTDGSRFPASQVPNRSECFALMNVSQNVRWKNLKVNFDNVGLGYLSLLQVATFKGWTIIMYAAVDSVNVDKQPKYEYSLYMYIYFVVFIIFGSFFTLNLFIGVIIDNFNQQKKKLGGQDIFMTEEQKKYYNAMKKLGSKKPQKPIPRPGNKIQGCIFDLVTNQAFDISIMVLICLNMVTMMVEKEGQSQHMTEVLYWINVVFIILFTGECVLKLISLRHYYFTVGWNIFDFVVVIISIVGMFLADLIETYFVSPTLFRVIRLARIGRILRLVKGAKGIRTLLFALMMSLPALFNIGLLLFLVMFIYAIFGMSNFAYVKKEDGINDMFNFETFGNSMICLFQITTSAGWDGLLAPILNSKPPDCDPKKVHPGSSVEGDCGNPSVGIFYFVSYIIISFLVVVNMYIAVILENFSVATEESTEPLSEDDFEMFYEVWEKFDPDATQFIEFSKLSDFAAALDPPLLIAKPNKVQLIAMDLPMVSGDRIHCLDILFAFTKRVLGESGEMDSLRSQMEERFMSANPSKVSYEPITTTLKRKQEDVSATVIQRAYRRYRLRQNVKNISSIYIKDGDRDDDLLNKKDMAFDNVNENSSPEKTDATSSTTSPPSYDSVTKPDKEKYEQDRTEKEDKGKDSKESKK
Assay: Manual patch clamp experiment hNav1.7 (CHO-hNav1.7 stable cell line)
Type: cell-based
Conditions: compound at 100 nM; read-out: Inhibition of Nav1.7 100 nM(%)
Answer in %, number only, no unit symbol.

Would you please look over these solved cases?
COMPOUND	inhibition at 0.1 µM, %
CCc1cc(C(=O)NS(=O)(=O)C2CC2)c(F)cc1CN1CCN(c2cc(Cl)cc(Cl)c2)CC1 [Compound Z-192]	77.7
Cc1cc(CN2CCN(Cc3cc(F)c(C(=O)NS(=O)(=O)C4CC4)cc3Cl)CC2)ccc1Cl [Compound C4, reference compound]	18.6
Cc1cc(N2CCN(Cc3cc(F)c(C(=O)NS(=O)(=O)C4CC4)cc3Cl)CC2)cc(C)c1Cl [Compound Z-185]	85.3
CCc1cc(C(=O)NS(=O)(=O)C2CC2)c(F)cc1CN1CCN(c2ccc(Cl)c(Cl)c2)CC1 [Compound Z-191]	73.3
Cc1c(F)ccc(N2CCN(Cc3cc(F)c(C(=O)NS(=O)(=O)C4CC4)cc3Cl)CC2)c1Cl [Compound Z-184]	70.3
O=C(NS(=O)(=O)C1CC1)c1cc(Cl)c(CN2CCN(c3ccc(OC(F)(F)F)c(Cl)c3)CC2)cc1F [Compound Z-92]	94.5

[in] Please look up its inhibition at 0.1 µM: Cc1cc(N2CCN(Cc3cc(F)c(C(=O)NS(=O)(=O)C4CC4)cc3Cl)CC2)c(F)cc1Cl [Compound Z-186]
[out] 83.3

[in] Same question for O=C(NS(=O)(=O)C1CC1)c1cc(Cl)c(OC[C@H]2CCCN2c2ccc(C(F)(F)F)cn2)cc1F [Compound Z-150] please.
[out] 93.3

[in] Same question for O=C(NS(=O)(=O)C1CC1)c1cc(Cl)c(CN2CCN(c3ccc(OC(F)(F)F)cn3)CC2)cc1F [Compound Z-159] please.
[out] 90.6

[in] Same question for O=C(NS(=O)(=O)C1CC1)c1cc(Cl)c(OC2CCN(c3ccc(Cl)c(Cl)c3)CC2)cc1F [Compound Z-117] please.
[out] 89.3

[in] Same question for Cc1c(F)c(F)cc(N2CCN(Cc3cc(F)c(C(=O)NS(=O)(=O)C4CC4)cc3Cl)CC2)c1F [Compound Z-182] please.
[out] 77.2

[in] Same question for O=C(NS(=O)(=O)C1CC1)c1cc(Cl)c(OC[C@H]2CCCN2c2ccc(C(F)(F)F)cc2)cc1F [Compound Z-80] please.
[out] 90.5

[in] Same question for Cc1c(Cl)ccc(N2CCN(Cc3cc(F)c(C(=O)NS(=O)(=O)C4CC4)cc3Cl)CC2)c1F [Compound Z-188] please.
[out] 81.8

[in] Same question for CCc1cc(N2CCN(Cc3cc(F)c(C(=O)NS(=O)(=O)C4CC4)cc3Cl)CC2)ccc1Cl [Compound Z-178] please.
[out] 89.1

[in] Same question for CCc1cc(C(=O)NS(=O)(=O)C2CC2)c(F)cc1CN1CCN(c2ccc(OC(F)(F)F)cc2)CC1 [Compound Z-189] please.
[out] 83.8

---

Biological target: hNav1.7 (Homo sapiens)
Construct: host or cells: CHO
Assay: Manual patch clamp experiment hNav1.7 (CHO-hNav1.7 stable cell line)
Format: cell-based
Details: compound at 100 nM; read-out: Inhibition of Nav1.7 100 nM(%)
inhibition at 0.1 µM reference
Answer in %, number only, no unit symbol.

[in] Please look up its inhibition at 0.1 µM: Cc1cc(N2CCN(Cc3cc(F)c(C(=O)NS(=O)(=O)C4CC4)cc3Cl)CC2)c(C)cc1Cl
[out] 90.8

[in] Same question for Cc1ccc(N2CCN(Cc3cc(F)c(C(=O)NS(=O)(=O)C4CC4)cc3Cl)CC2)cc1Cl please.
[out] 89.2

[in] Same question for O=C(NS(=O)(=O)C1CC1)c1cc(Cl)c(OC[C@H]2CCCN2C(=O)c2ccc(C(F)(F)F)cc2)cc1F [Compound C10, reference compound] please.
[out] 7.83

[in] Same question for C[C@@H]1CN(c2ccc(Cl)c(Cl)c2)CCN1Cc1cc(F)c(C(=O)NS(=O)(=O)C2CC2)cc1Cl please.
[out] 89.1
